target: human T-bet (Homo sapiens, UniProt Q9UL17); construct: expressed in transfected cells; host or cells: engineered HEK cells (HEKT-bet); test: HEKT-bet-luc assay (T-bet dependent luciferase reporter in engineered HEK cells); type: cell-based; conditions: Table 3; HEKT-bet cells, compound 24 hours; IC50 normalized to reference ER-213038; read-out: IC50
Documented pIC50 across a set of compounds
Interpret pIC50 as the negative base-10 log of the concentration measured in mol/L.

Some compounds with recorded pIC50:
COc1cc(CN2CCC3(CC2)C(=O)N(C/C=C/c2ccccc2)C(=O)N3CC=C(C)C)cc(OC)c1 [Example 86] | 6.12
COCCN1C(=O)N(Cc2cccc(OC)c2)C(=O)C12CCN(Cc1cccc(-c3ccsc3)c1)CC2 [Example 85] | 6.12
COc1cccc(CN2C(=O)N(Cc3ccc(Cl)cc3)C3(CCN(Cc4ccccc4)CC3)C2=O)c1 [Example 116] | 5.74

Sure, the documented pIC50 for COCCN1C(=O)N(Cc2cccc(OC)c2)C(=O)C12CCN(C1CCc3ccc(C)cc31)CC2 (stereo not shown) [Example 106] is 5.85

Sure, the documented pIC50 for COCCN1C(=O)N(CCCc2cccnc2)C(=O)C12CCN(Cc1ccnc3ccccc13)CC2 [Example 81] is 6.19

* * *

Molecular target: human T-bet (Homo sapiens, UniProt Q9UL17)
Construct: expressed in transfected cells; host or cells: engineered HEK cells (HEKT-bet)
Sequence (Q9UL17 1-535): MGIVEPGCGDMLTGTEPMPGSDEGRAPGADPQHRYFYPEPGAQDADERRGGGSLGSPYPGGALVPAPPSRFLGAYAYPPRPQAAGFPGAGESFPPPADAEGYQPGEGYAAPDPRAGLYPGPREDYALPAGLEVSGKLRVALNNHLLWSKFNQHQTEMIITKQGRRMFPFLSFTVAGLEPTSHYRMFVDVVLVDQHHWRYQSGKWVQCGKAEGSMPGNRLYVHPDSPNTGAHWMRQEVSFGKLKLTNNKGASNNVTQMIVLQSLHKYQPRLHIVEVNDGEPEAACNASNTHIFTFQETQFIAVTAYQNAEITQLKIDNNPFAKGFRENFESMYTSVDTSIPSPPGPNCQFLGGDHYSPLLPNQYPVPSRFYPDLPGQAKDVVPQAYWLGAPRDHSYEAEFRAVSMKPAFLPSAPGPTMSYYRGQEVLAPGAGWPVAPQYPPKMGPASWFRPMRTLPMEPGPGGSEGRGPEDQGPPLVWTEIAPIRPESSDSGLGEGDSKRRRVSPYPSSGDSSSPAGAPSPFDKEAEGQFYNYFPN
Assay: HEKT-bet-luc assay (T-bet dependent luciferase reporter in engineered HEK cells)
Format: cell-based
Details: Table 4; HEKT-bet cells, compound 24 hours; IC50 normalized to reference ER-213038; read-out: IC50
property.measured: pIC50
Interpret pIC50 as the negative base-10 log of the concentration measured in mol/L.

COCCN1C(=O)N(Cc2cccc(OC)c2)C(=O)C12CCN(Cc1c(Cl)ccc(C)c1F)CC2 [Example 275] | 6.27
COCCN1C(=O)N(Cc2cccc(F)c2)C(=O)C12CCN(Cc1cc(OC)cc(OC)c1)CC2 [Example 163] | 6.74
CCN1C(=O)N(Cc2cccc(OC)c2)C(=O)C12CCN(Cc1cc(OC)cc(OC)c1)CC2 [Example 137] | 6.91
COCCN1C(=O)N(Cc2cccc(OC)c2)C(=O)C12CCN(Cc1cccc3cc[nH]c13)CC2 [Example 267] | 6.29
O=C1N(C/C=C/c2ccccc2)C(=O)C2(CCN(Cc3cccc4ccccc34)CC2)N1CCn1cccc1 [Example 251] | 6.35
O=C1N(C/C=C/c2ccccc2)C(=O)C2(CCN(Cc3cccc4ccccc34)CC2)N1Cc1ccncc1 [Example 223] | 6.43

Sure, the documented pIC50 for COCCN1C(=O)N(Cc2cccc(OC)c2)C(=O)C12CCN(Cc1c3ccccc3cc3ccccc13)CC2 [Example 160] is 6.77

Sure, the documented pIC50 for COCCN1C(=O)N(Cc2cccc(N(C)C)c2)C(=O)C12CCN(Cc1ccccc1)CC2 [Example 189] is 6.61

Sure, the documented pIC50 for COCCN1C(=O)N(C/C=C/c2cccc(C)c2)C(=O)C12CCN(Cc1ccccc1)CC2 [Example 205] is 6.53

Sure, the documented pIC50 for CCCOc1ccc(CN2CCC3(CC2)C(=O)N(Cc2cccc(OC)c2)C(=O)N3CCOC)cc1OC [Example 273] is 6.28

Sure, the documented pIC50 for CCN1C(=O)N(Cc2cccc(OC)c2)C(=O)C12CCN(Cc1cccc3ccccc13)CC2 [Example 168] is 6.72

Sure, the documented pIC50 for CCN1C(=O)N(Cc2ccc3ccccc3c2)C(=O)C12CCN(Cc1cccc3ccccc13)CC2 [Example 286] is 6.25

Sure, the documented pIC50 for COCCN1C(=O)N(Cc2cccc(OC)c2)C(=O)C12CCN(Cc1cccc3ccccc13)CC2 [Example 128] is 7.07

Sure, the documented pIC50 for COCCN1C(=O)N(Cc2cccc(OC)c2)C(=O)C12CCN(Cc1cc(C)ccc1C)CC2 [Example 150] is 6.83

Sure, the documented pIC50 for COc1cc(CN2CCC3(CC2)C(=O)N(Cc2cc(OC)cc(OC)c2)C(=O)N3Cc2ccncc2)cc(OC)c1 [Example 145] is 6.86

Sure, the documented pIC50 for COCCN1C(=O)N(Cc2cccc(OC)c2)C(=O)C12CCN(Cc1c(C)cccc1C)CC2 [Example 141] is 6.89

Sure, the documented pIC50 for COCCN1C(=O)N(Cc2cccc(OC)c2)C(=O)C12CCN(Cc1cccc3c1Cc1ccccc1-3)CC2 [Example 169] is 6.72

Sure, the documented pIC50 for COCCN1C(=O)N(Cc2cccc(OC)c2)C(=O)C12CCN(Cc1cccc(Cl)c1)CC2 [Example 235] is 6.41

* * *

Documented pIC50 across a set of compounds
Molecular target: human T-bet (Homo sapiens)
Construct: expressed in transfected cells; host or cells: engineered HEK cells (HEKT-bet)
Sequence (Q9UL17 1-535): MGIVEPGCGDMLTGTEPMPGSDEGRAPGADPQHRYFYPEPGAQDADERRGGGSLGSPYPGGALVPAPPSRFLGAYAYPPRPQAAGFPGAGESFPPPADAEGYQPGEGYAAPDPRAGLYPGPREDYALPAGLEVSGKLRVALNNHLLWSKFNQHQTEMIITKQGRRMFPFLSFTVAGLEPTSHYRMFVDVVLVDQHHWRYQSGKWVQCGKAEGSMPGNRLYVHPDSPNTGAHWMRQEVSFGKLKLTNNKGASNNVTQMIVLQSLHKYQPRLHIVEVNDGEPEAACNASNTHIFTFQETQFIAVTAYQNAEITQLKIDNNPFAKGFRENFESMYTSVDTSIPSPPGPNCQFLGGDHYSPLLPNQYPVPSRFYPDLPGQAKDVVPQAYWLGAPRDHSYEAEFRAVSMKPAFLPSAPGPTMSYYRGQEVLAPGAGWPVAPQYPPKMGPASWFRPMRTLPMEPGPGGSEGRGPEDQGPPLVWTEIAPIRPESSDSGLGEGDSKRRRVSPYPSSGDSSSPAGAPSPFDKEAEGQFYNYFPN
Test: HEKT-bet-luc assay (T-bet dependent luciferase reporter in engineered HEK cells)
Assay type: cell-based
Settings: Table 4; HEKT-bet cells, compound 24 hours; IC50 normalized to reference ER-213038; read-out: IC50
Interpret pIC50 as the negative base-10 log of the concentration measured in mol/L.

Some compounds with recorded pIC50:
COCCN1C(=O)N(Cc2cc(OC)cc(OC)c2)C(=O)C12CCN(Cc1cc(OC)cc(OC)c1)CC2 | 6.64
CCN1C(=O)N(Cc2cccc(OC)c2)C(=O)C12CCN(Cc1cccc(OC)c1)CC2 | 6.26
COCCN1C(=O)N(Cc2cccc(OC)c2)C(=O)C12CCN(Cc1cc3ccccc3nc1Cl)CC2 | 6.43

Query `COCCN1C(=O)N(CCCOc2ccccc2)C(=O)C12CCN(Cc1cccc(C)c1)CC2` on human T-bet (Homo sapiens); pIC50 returned: 6.50

Query `COCCN1C(=O)N(Cc2cccc(OC)c2)C(=O)C12CCN(Cc1c(C)cc(C)cc1C)CC2` on human T-bet (Homo sapiens); pIC50 returned: 6.63

* * *

Documented IC50 across a set of compounds
Molecular target: human T-bet (Homo sapiens)
Construct: expressed in transfected cells; host or cells: engineered HEK cells (HEKT-bet)
Sequence (Q9UL17 1-535): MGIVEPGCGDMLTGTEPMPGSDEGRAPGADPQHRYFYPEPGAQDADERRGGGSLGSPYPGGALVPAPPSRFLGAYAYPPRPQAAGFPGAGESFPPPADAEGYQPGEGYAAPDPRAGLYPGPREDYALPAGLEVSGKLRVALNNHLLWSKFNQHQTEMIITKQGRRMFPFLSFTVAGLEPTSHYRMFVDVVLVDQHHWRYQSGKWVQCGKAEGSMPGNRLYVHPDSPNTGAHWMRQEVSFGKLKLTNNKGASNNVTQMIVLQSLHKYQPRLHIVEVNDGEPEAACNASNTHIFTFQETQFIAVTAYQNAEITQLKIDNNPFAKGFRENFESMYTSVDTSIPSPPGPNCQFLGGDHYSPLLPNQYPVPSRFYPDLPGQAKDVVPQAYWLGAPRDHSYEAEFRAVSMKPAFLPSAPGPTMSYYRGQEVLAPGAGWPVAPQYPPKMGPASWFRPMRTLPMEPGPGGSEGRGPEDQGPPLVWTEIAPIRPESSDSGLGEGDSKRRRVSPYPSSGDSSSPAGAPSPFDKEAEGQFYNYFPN
Assay: HEKT-bet-luc assay (T-bet dependent luciferase reporter in engineered HEK cells)
Assay type: cell-based
Conditions: Table 4; HEKT-bet cells, compound 24 hours; IC50 normalized to reference ER-213038; read-out: IC50
Lab book: enter the figure in nM, no units written.

Sure, the documented IC50 for CCN1C(=O)N(CCCc2ccccc2)C(=O)C12CCN(Cc1cccc(C)c1)CC2 [Example 252] is 448

Sure, the documented IC50 for COc1cc(CN2CCC3(CC2)C(=O)N(Cc2cc(OC)cc(OC)c2)C(=O)N3Cc2ccc3c(c2)nnn3C)cc(OC)c1 [Example 281] is 548

Sure, the documented IC50 for CCN1C(=O)N(CCCc2ccccc2)C(=O)C12CCN(Cc1cccc(OC)c1)CC2 [Example 282] is 549
